Biological target: T1, TNFR1 (Homo sapiens, UniProt P19438)
T1 chain: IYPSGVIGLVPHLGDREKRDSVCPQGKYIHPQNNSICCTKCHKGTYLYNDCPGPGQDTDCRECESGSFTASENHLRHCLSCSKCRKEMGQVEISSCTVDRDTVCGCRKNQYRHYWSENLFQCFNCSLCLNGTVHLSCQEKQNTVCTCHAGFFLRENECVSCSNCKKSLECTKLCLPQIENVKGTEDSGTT
Experiment: yeast display SC50
Please assign 0 (no) whenever apparent Kd (screen) is at or above 2 nM, and 1 (yes) whenever it is below.

These solved cases illustrate the format of a correct answer.
INSERT INTO results (binder, label_class) VALUES
  ('K72Q (designed binder) MTLQELLREEALRRAEAEAFRYALELLAEKFPEQKEYLLDLAEEIESQIRSLSGVDVEDVRKFLDKEWAWVQELLAEHPAELAEVEAARAARLAELRAEVEAKVAA', '1 (yes)'),
  ('E81Q (designed binder) MTLQELLREEALRRAEAEAFRYALELLAEKFPEQKEYLLDLAEEIESQIRSLSGVDVEDVRKFLDKEWAWVKELLAEHPAQLAEVEAARAARLAELRAEVEAKVAA', '1 (yes)'),
  ('E36K (designed binder) MTLQELLREEALRRAEAEAFRYALELLAEKFPEQKKYLLDLAEEIESQIRSLSGVDVEDVRKFLDKEWAWVKELLAEHPAELAEVEAARAARLAELRAEVEAKVAA', '0 (no)'),
  ('F31N (designed binder) MTLQELLREEALRRAEAEAFRYALELLAEKNPEQKEYLLDLAEEIESQIRSLSGVDVEDVRKFLDKEWAWVKELLAEHPAELAEVEAARAARLAELRAEVEAKVAA', '1 (yes)'),
  ('A102K (designed binder) MTLQELLREEALRRAEAEAFRYALELLAEKFPEQKEYLLDLAEEIESQIRSLSGVDVEDVRKFLDKEWAWVKELLAEHPAELAEVEAARAARLAELRAEVEKKVAA', '1 (yes)'),
  ('R61W (designed binder) MTLQELLREEALRRAEAEAFRYALELLAEKFPEQKEYLLDLAEEIESQIRSLSGVDVEDVWKFLDKEWAWVKELLAEHPAELAEVEAARAARLAELRAEVEAKVAA', '0 (no)');

Problem: apparent Kd (screen) strictly < 2 nM for this binder? R50D (designed binder) MTLQELLREEALRRAEAEAFRYALELLAEKFPEQKEYLLDLAEEIESQIDSLSGVDVEDVRKFLDKEWAWVKELLAEHPAELAEVEAARAARLAELRAEVEAKVAA
Solution: 1 (yes)
